B1: RHOBTB1 (parent)
chain: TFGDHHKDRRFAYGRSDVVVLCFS

- Variants of: B1
- protocol-notes: protein stability index of a GFP-peptide fusion (GPS, HEK-293T) (PSI 1-6); higher = more stable;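 note: lentivirally expressed fusions sorted by FACS into six bins by GFP to DsRed ratio, PSI derived from sequencing read proportions per bin multiplied by bin number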
- experimental-setup: c terminus: a fixed tail appended
metric-name: protein stability index
// response body must contain only the number

Sample answers from the record:
G3N | 1.98
Y13K | 2.4
V20F | 2.54

Look at this variant and give its reported protein stability index. K7L
1.46

And what about the variant D4Y ?
3.19

And what about the variant F2N ?
2.23

And what about the variant V18L ?
3.53

And what about the variant R9V ?
3.55
